Tested on: MARIMO
Experiment: cell viability relative to vehicle control; higher = less cytotoxic;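 further: after 48 h exposure read by CellTiter-Glo luminescence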
Conditions: 10 µM; SRSF2 genotype: SRSF2 P95H/wt
Where a name gives a salt, the structure may show the parent alone.
# Criterion met = cell viability below 80% (exclusive); Criterion not met = cell viability at/above 80%

| Molecule | Subject of test | Assigned category |
| --- | --- | --- |
| C[C@H](CCC(=O)O)[C@H]1CC[C@H]2[C@@H]3[C@H](O)C[C@@H]4C[C@H](O)CC[C@]4(C)[C@H]3C[C@H](O)[C@]12C | MARIMO | Criterion not met |
| COc1cc2nc(N(C)CCCNC(=O)C3CCCO3)nc(N)c2cc1OC (stereo unspecified) [Alfuzosin hydrochloride (Uroxatral)] | MARIMO | Criterion not met |
| CO/N=C(\C(=O)N[C@@H]1C(=O)N2C(C(=O)O)=C(CSC(=O)c3ccco3)CS[C@H]12)c1csc(N)n1 [Ceftiofur] | MARIMO | Criterion not met |
| O=c1sn(-c2cccc3ccccc23)c(=O)n1Cc1ccccc1 | MARIMO | Criterion met |
| CCOC(=O)c1c2c3c(cccc3[nH]c1=O)C(=O)c1ccccc1-2 | MARIMO | Criterion not met |
| Cc1ccc(Nc2nccc(N(C)c3ccc4c(C)n(C)nc4c3)n2)cc1S(N)(=O)=O [Pazopanib HCl] | MARIMO | Criterion met |

---

Test system: OCI-AML2
Assay: cell viability relative to vehicle control; higher = less cytotoxic
Settings: 10 µM; SRSF2 genotype: wt/wt
Structures can show the parent of a compound that is named as a salt.

| Compound | cell viability, % |
| --- | --- |
| CCn1cc(C(=O)O)c(=O)c2cc(F)c(N3CCN(C)CC3)cc21 [Pefloxacin mesylate] | 115 |
| CCCCOc1ccc(C(=O)Nc2ccc(F)cc2F)cc1 | 92.8 |
| CCCCCCCCCCCCCCCCCC(=O)O | 103 |
| C[C@@H]1[C@H]2c3cc4c(cc3O[C@@]35OCOC3=CC(=O)[C@H](C[C@H]1C)[C@@H]25)OCO4 | 86.8 |
| Brc1ccc2[nH]ccc2c1 | 115 |
| CC#Cc1cncc(-c2ccc3c(c2)C2(N=C(C)C(N)=N2)C2(CCC(OC)CC2)C3)c1 (stereo unspecified) | 93.1 |

---

Tested on: MARIMO
Assay: cell viability relative to vehicle control; higher = less cytotoxic
Settings: 10 µM; SRSF2 genotype: SRSF2 wt/wt
Counter-ions that a name gives are not always drawn.

| Compound | cell viability |
| --- | --- |
| CC#CC(=O)N1CCC[C@H]1c1nc(-c2ccc(C(=O)Nc3ccccn3)cc2)c2c(N)nccn12 [Acalabrutinib (ACP-196)] | 113% |
| Nc1ncnc2c1c(-c1cnc3[nH]ccc3c1)nn2C1CCCC1 | 26.9% |
| C[C@]12C=CC(=O)C=C1CC[C@@H]1[C@@H]2C(=O)C[C@@]2(C)[C@H]1CC[C@]2(O)C(=O)CO [Prednisone (Adasone)] | 101% |
| COC(=O)C1=C(C)NC(C)=C(C(=O)OCC(C)C)C1c1ccccc1[N+](=O)[O-] (stereo unspecified) [Nisoldipine] | 58.6% |
| Nc1nc(CC(=O)Nc2ccc(CCNC[C@H](O)c3ccccc3)cc2)cs1 [Mirabegron (YM178)] | 114% |
| Cc1ncc(-c2ccnc(Nc3ccc(S(C)(=O)=O)cc3)n2)n1C(C)C | 5.22% |
| Nc1ncnc2c1nc(Br)n2[C@@H]1O[C@@H]2COP(=O)(O)O[C@H]2[C@H]1O [8-Bromo-cAMP] | 96.1% |
| CC(=O)Nc1ccc(OC(=O)c2ccccc2OC(C)=O)cc1 [Benorylate] | 100% |
| CC1(C)Cc2c(sc(NC(=O)c3ccn[nH]3)c2C(N)=O)C(C)(C)O1 | 93.3% |
| Nc1ccc(-c2cccc(C(=O)Nc3cnc4nc(N5CCOCC5)oc4c3)n2)cn1 | 91.6% |
| CC[C@@]1(O)C(=O)OCc2c1cc1n(c2=O)Cc2cc3c(CN(C)C)c(O)ccc3nc2-1 [Topotecan HCl] | 3.35% |
| O=C1c2ccc(Nc3ccc(F)cc3F)cc2CCc2ccc(OC[C@H](O)CO)cc21 [Skepinone-L] | 100% |
| CCN1CCC[C@H]1CNC(=O)c1cc(S(N)(=O)=O)ccc1OC [Levosulpiride (Levogastrol)] | 104% |
| O=c1ncn2nc(Sc3ccc(F)cc3F)ccc2c1-c1c(Cl)cccc1Cl | 84% |
| C=CCC(=NOS(=O)(=O)O)S[C@@H]1O[C@H](CO)[C@@H](O)[C@H](O)[C@H]1O (stereo in doubt) [Sinigrin] | 96.4% |
| Cc1cc(-c2cc(C)c(NCCCS(=O)(=O)O)c(C)c2)cc(C)c1N | 111% |
| Cc1cc(C)c(Nc2ccnc(Nc3ccc(C#N)cc3)n2)c(C)c1 [Dapivirine (TMC120)] | 70.6% |
| COc1ccc2c(c1O)-c1c(O)c(OC)cc3c1[C@H](C2)[N+](C)(C)CC3 [Magnoflorine] | 105% |
| C=C(C)[C@@H]1CC[C@]2(C)CC[C@]3(C)[C@H](CC[C@@H]4[C@@]5(C)CC[C@H](O)C(C)(C)[C@@H]5CC[C@]43C)[C@@H]12 [Lupeol] | 108% |
| Nc1nc(Nc2ccc(S(N)(=O)=O)cc2)nn1C(=O)c1c(F)cccc1F | 7.19% |
| COc1cc(-c2oc3cc(O)cc(O)c3c(=O)c2O)ccc1O [Isorhamnetin] | 92.4% |

---

System: OCI-AML2
Test: cell viability relative to vehicle control; higher = less cytotoxic
Settings: 10 µM; SRSF2 genotype: P95H/wt
Cut-off 70% on cell viability: below means condition met, at or above means condition not met.

| Compound | Subject of test | Assigned category |
| --- | --- | --- |
| C[N+]12CCc3cc4c(cc3C1(O)Cc1ccc3c(c1C2)OCO3)OCO4 (stereo unspecified) [Hydroprotopine] | OCI-AML2 | condition not met |
| COc1ccc(-c2cc(=O)c3c(OC)c(OC)c(OC)c(OC)c3o2)cc1OC [Nobiletin (Hexamethoxyflavone)] | OCI-AML2 | condition not met |
| CN1CCN(CCCN2c3ccccc3Sc3ccc(C(F)(F)F)cc32)CC1 [Trifluoperazine 2HCl] | OCI-AML2 | condition met |
| Cc1c(Nc2ncccc2C(=O)O)cccc1C(F)(F)F [Flunixin meglumin] | OCI-AML2 | condition not met |
| COC1C(O)CC(=O)OC(C)CC=CC=CC(OC2CCC(N(C)C)C(C)O2)C(C)CC(CC=O)C1OC1OC(C)C(OC2CC(C)(O)C(O)C(C)O2)C(N(C)C)C1O (stereo unspecified) [spiramycin] | OCI-AML2 | condition not met |
| Nc1ncnc2n[nH]c(Nc3ccc(F)cc3)c12 | OCI-AML2 | condition met |
| CCCN(CCC)S(=O)(=O)c1ccc(C(=O)O)cc1 [Probenecid (Benemid)] | OCI-AML2 | condition not met |
| N#Cc1cc(-c2n[nH]c(-c3ccncc3)n2)ccn1 [Topiroxostat] | OCI-AML2 | condition not met |
| C=C(C)[C@@H]1CC[C@]2(C(=O)O[C@@H]3O[C@H](CO[C@@H]4O[C@H](CO)[C@@H](O[C@@H]5O[C@@H](C)[C@H](O)[C@@H](O)[C@H]5O)[C@H](O)[C@H]4O)[C@@H](O)[C@H](O)[C@H]3O)CC[C@]3(C)[C@H](CC[C@@H]4[C@@]5(C)CC[C@H](O[C@@H]6OC[C@H](O)[C@H](O)[C@H]6O[C@@H]6O[C@@H](C)[C@H](O)[C@@H](O)[C@H]6O)[C@@](C)(CO)[C@@H]5CC[C@]43C)[C@@H]12 [Anemoside B4] | OCI-AML2 | condition not met |
| COc1cc2c(cc1OC)[C@@H](Cc1ccc(Oc3cc(C[C@@H]4c5cc(OC)c(OC)cc5CCN4C)ccc3O)cc1)N(C)CC2 [Dauricine] | OCI-AML2 | condition met |
| CCc1cc(/C(C)=N/OCc2ccc(C3CCCCC3)c(C(F)(F)F)c2)ccc1CN1CC(C(=O)O)C1 [BAF312 (Siponimod)] | OCI-AML2 | condition met |

---

# cell viability values compiled below
Test system: OCI-AML2
Assay: cell viability relative to vehicle control; higher = less cytotoxic
Settings: 10 µM; SRSF2 genotype: P95H/wt
Structures can show the parent of a compound that is named as a salt.

| Molecule | Subject of test | Unit name | cell viability |
| --- | --- | --- | --- |
| Nc1ccn([C@@H]2O[C@H](CO)[C@@H](O)[C@@H]2O)c(=O)n1 [Cytarabine hydrochloride] | OCI-AML2 | % | 6.92 |
| CO/N=C(\C(=O)N[C@@H]1C(=O)N2C(C(=O)OCOC(=O)C(C)(C)C)=C(/C=C\c3scnc3C)CS[C@H]12)c1csc(N)n1 [Cefditoren pivoxil] | OCI-AML2 | % | 102 |
| O=C1O[C@H]([C@@H](O)CO)C(O)=C1O [Vitamin C (Ascorbic acid)] | OCI-AML2 | % | 91 |
| CN(Cc1cnc2nc(N)nc(N)c2n1)c1ccc(C(=O)N[C@@H](CCC(=O)O)C(=O)O)cc1 [Abitrexate (Methotrexate)] | OCI-AML2 | % | 99.2 |
| CCCCCCCCCCC[C@@H](C[C@@H]1OC(=O)[C@H]1CCCCCC)OC(=O)[C@H](CC(C)C)NC=O [Orlistat (Alli, Xenical)] | OCI-AML2 | % | 49.6 |
| CC(C)(C)C(=O)Nc1ccc2c(c1)C(=O)C(=O)c1ccccc1-2 [SF1670 (PTEN inhibitor)] | OCI-AML2 | % | 65.8 |
| CN1CCC(=C2c3ccccc3CCc3sccc32)CC1 [Pizotifen malate] | OCI-AML2 | % | 81.4 |
| Nc1ccc(-c2cccc(C(=O)Nc3cnc4nc(N5CCOCC5)oc4c3)n2)cn1 | OCI-AML2 | % | 103 |
| CCNC(=O)CCC/C=C\C[C@@H]1[C@@H](/C=C/[C@@H](O)CCc2ccccc2)[C@H](O)C[C@@H]1O [Bimatoprost] | OCI-AML2 | % | 105 |
| O=C(/C=C/c1ccc(O)cc1)OC[C@H]1O[C@@H](Oc2c(-c3ccc(O)cc3)oc3cc(O)cc(O)c3c2=O)[C@H](O)[C@@H](O)[C@@H]1O [Tiliroside] | OCI-AML2 | % | 104 |
| C[C@]1(O)C[C@@H](O)[C@@H]2C=CO[C@@H](O[C@@H]3O[C@H](CO)[C@@H](O)[C@H](O)[C@H]3O)[C@@H]21 [Leonuride] | OCI-AML2 | % | 102 |
| CCOC(=O)[C@H](CCc1ccccc1)N[C@@H](C)C(=O)N1C(=O)N(C)C[C@H]1C(=O)O [Imidapril HCl] | OCI-AML2 | % | 108 |
| CC(=O)N[C@@H](CC(C)C)C(=O)N[C@@H](CC(C)C)C(=O)N[C@H](C=O)CCCNC(=N)N [Leupeptin Hemisulfate] | OCI-AML2 | % | 97.4 |
| C[C@H](NC(=O)/C(C#N)=C/c1cccc(Br)n1)c1ccccc1 | OCI-AML2 | % | 10.2 |
| CC(C)n1cnc2c(NCCc3ccc(O)cc3)nc(-c3csc4ccccc34)nc21 [StemRegenin 1] | OCI-AML2 | % | 86.8 |
| COc1cc2nc(N3CCCC3)nc(NCCCCCN3CCCC3)c2cc1OC | OCI-AML2 | % | 0.31 |
| COc1cc2c(Nc3ccc(NC(=O)c4ccccc4)cc3)ncnc2cc1OCCCN1CCOCC1 | OCI-AML2 | % | 16.4 |
| Cc1[nH]c2ccccc2c1CCNCc1ccc(/C=C/C(=O)NO)cc1 [Panobinostat (LBH589)] | OCI-AML2 | % | 1.13 |
| N#Cc1ccc(-c2csc(NN=C3CCCC3)n2)cc1 [Remodelin] | OCI-AML2 | % | 61 |
| CNc1nc(Nc2cnn(C3CCN(C4COC4)CC3F)c2Cl)ncc1C(F)(F)F (configuration not stated) | OCI-AML2 | % | 46.3 |
| O=C1Nc2ccc(I)cc2C1=Cc1cc(Br)c(O)c(Br)c1 | OCI-AML2 | % | 86.7 |
| C[C@H](CC[C@@H](O[C@@H]1O[C@H](CO[C@@H]2O[C@H](CO)[C@@H](O)[C@H](O)[C@H]2O)[C@@H](O)[C@H](O)[C@H]1O[C@@H]1O[C@H](CO)[C@@H](O)[C@H](O)[C@H]1O)C(C)(C)O)[C@H]1CC[C@@]2(C)[C@@H]3CC=C4[C@@H](CC[C@H](O[C@@H]5O[C@H](CO[C@@H]6O[C@H](CO)[C@@H](O)[C@H](O)[C@H]6O)[C@@H](O)[C@H](O)[C@H]5O)C4(C)C)[C@]3(C)[C@H](O)C[C@]12C [Mogroside V] | OCI-AML2 | % | 103 |
| COc1ccc(/C=C/C(=O)c2c(O)cc(OC)cc2OC)cc1 [Flavokawain A] | OCI-AML2 | % | 71.2 |
| C[C@@H](Nc1nc(N[C@H](C)C(F)(F)F)nc(-c2cccc(Cl)n2)n1)C(F)(F)F [Vorasidenib (AG-881)] | OCI-AML2 | % | 104 |
| COc1cc(C)c(/C=C/C(C)=C/C=C/C(C)=C/C(=O)O)c(C)c1C [Acitretin] | OCI-AML2 | % | 32.6 |
| Oc1c(F)cc(-c2cnccc2-c2ccc(N3CCOCC3)cc2)cc1F | OCI-AML2 | % | 120 |
| COc1ccc(Cl)cc1C(=O)NCCc1ccc(S(=O)(=O)NC(=O)NC2CCCCC2)cc1 [Glyburide (Glibenclamide)] | OCI-AML2 | % | 98.8 |
